B1: library; a variant is named by its letters at N, in order (parent)
chain: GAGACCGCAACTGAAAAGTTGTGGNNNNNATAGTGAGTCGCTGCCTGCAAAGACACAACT

- Variants of: B1
- PROCEDURE SUMMARY: ligation selection enrichment (abundance after / before one-round selection) (fold); higher = more template-directed ligation activity
- CONDITION DETAILS: with T7Psub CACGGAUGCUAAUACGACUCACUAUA; MgCl2 25 mM; 42 °C; 4 h; pH 8.5
MEASURED QUANTITY: ligation selection enrichment

[
  {
    "MUTANT ID": "ATACC",
    "MEASURED QUANTITY": "ligation selection enrichment",
    "NUMERIC VALUE": 0.169
  },
  {
    "MUTANT ID": "GGGCC",
    "MEASURED QUANTITY": "ligation selection enrichment",
    "NUMERIC VALUE": 0.243
  },
  {
    "MUTANT ID": "GTAGG",
    "MEASURED QUANTITY": "ligation selection enrichment",
    "NUMERIC VALUE": 0.422
  },
  {
    "MUTANT ID": "GTATT",
    "MEASURED QUANTITY": "ligation selection enrichment",
    "NUMERIC VALUE": 0.236
  },
  {
    "MUTANT ID": "CTCCT",
    "MEASURED QUANTITY": "ligation selection enrichment",
    "NUMERIC VALUE": 0.503
  },
  {
    "MUTANT ID": "CGGTG",
    "MEASURED QUANTITY": "ligation selection enrichment",
    "NUMERIC VALUE": 0.24
  },
  {
    "MUTANT ID": "CTCGA",
    "MEASURED QUANTITY": "ligation selection enrichment",
    "NUMERIC VALUE": 0.501
  },
  {
    "MUTANT ID": "TAGCT",
    "MEASURED QUANTITY": "ligation selection enrichment",
    "NUMERIC VALUE": 0.547
  },
  {
    "MUTANT ID": "TATTA",
    "MEASURED QUANTITY": "ligation selection enrichment",
    "NUMERIC VALUE": 0.197
  },
  {
    "MUTANT ID": "CTTGG",
    "MEASURED QUANTITY": "ligation selection enrichment",
    "NUMERIC VALUE": 0.278
  },
  {
    "MUTANT ID": "GTCTA",
    "MEASURED QUANTITY": "ligation selection enrichment",
    "NUMERIC VALUE": 0.177
  },
  {
    "MUTANT ID": "GCGGA",
    "MEASURED QUANTITY": "ligation selection enrichment",
    "NUMERIC VALUE": 0.334
  },
  {
    "MUTANT ID": "GTGTT",
    "MEASURED QUANTITY": "ligation selection enrichment",
    "NUMERIC VALUE": 0.277
  },
  {
    "MUTANT ID": "TGTAC",
    "MEASURED QUANTITY": "ligation selection enrichment",
    "NUMERIC VALUE": 0.277
  },
  {
    "MUTANT ID": "CTTCC",
    "MEASURED QUANTITY": "ligation selection enrichment",
    "NUMERIC VALUE": 0.27
  },
  {
    "MUTANT ID": "CTGGA",
    "MEASURED QUANTITY": "ligation selection enrichment",
    "NUMERIC VALUE": 0.282
  },
  {
    "MUTANT ID": "CACAG",
    "MEASURED QUANTITY": "ligation selection enrichment",
    "NUMERIC VALUE": 0.134
  },
  {
    "MUTANT ID": "AATGC",
    "MEASURED QUANTITY": "ligation selection enrichment",
    "NUMERIC VALUE": 0.198
  },
  {
    "MUTANT ID": "CGCGG",
    "MEASURED QUANTITY": "ligation selection enrichment",
    "NUMERIC VALUE": 0.533
  },
  {
    "MUTANT ID": "CCTGG",
    "MEASURED QUANTITY": "ligation selection enrichment",
    "NUMERIC VALUE": 0.381
  },
  {
    "MUTANT ID": "GGCAA",
    "MEASURED QUANTITY": "ligation selection enrichment",
    "NUMERIC VALUE": 0.423
  },
  {
    "MUTANT ID": "GACGA",
    "MEASURED QUANTITY": "ligation selection enrichment",
    "NUMERIC VALUE": 1.29
  }
]
